target: T1, CD3 epsilon homodimer protein (UniProt P07766 23-126); assay: SPR, antibody over immobilised CD3e homodimer;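 note: SPR at 25 °C with CD3 epsilon homodimer amine-coupled to a CM4 sensor chip and antibody flowed over as analyte in HBS-EP+ running buffer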
T1 construct: also called CD3 (CD3 epsilon)
T1 sequence (P07766 23-126): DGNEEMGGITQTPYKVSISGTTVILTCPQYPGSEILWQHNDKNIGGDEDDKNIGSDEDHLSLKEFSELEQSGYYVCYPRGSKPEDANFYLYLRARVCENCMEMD
API: label(entry) gives Satisfied if the entry's KD ratio to GLS3000 is strictly smaller than 1; on equality or larger values it gives Not satisfied.

Would you please look over these solved cases?
| BINDER | QUALITATIVE LABEL |
| --- | --- |
| CE115HA000/GLS3000 L33E (antibody, IgG1, name in Kabat numbering, V domains shown, one-arm IgG1) VH: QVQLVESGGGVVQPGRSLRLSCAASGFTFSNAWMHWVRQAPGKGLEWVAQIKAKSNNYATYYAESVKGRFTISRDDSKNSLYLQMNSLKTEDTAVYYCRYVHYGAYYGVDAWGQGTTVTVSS VL: DIVMTQSPLSLPVTPGEPASISCRSSQSLVHSNRNTYEHWYQQKPGQAPRLLIYKVSNRFSGVPDRFSGSGSGTDFTLKISRVEAEDVGVYYCGQGTQVPYTFGQGTKLEIK | Satisfied |
| CE115HA000/GLS3000 R54S (antibody, IgG1, name in Kabat numbering, V domains shown, one-arm IgG1) VH: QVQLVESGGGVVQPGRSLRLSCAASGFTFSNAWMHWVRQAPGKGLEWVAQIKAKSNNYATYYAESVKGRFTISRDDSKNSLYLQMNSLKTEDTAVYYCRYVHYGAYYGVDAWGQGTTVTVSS VL: DIVMTQSPLSLPVTPGEPASISCRSSQSLVHSNRNTYLHWYQQKPGQAPRLLIYKVSNSFSGVPDRFSGSGSGTDFTLKISRVEAEDVGVYYCGQGTQVPYTFGQGTKLEIK | Satisfied |
| CE115HA000/GLS3000 R77S (antibody, IgG1, name in Kabat numbering, V domains shown, one-arm IgG1) VH: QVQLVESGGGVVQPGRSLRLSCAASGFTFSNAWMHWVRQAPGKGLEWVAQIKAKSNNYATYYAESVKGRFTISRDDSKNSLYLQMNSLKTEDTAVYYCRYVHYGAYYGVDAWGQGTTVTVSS VL: DIVMTQSPLSLPVTPGEPASISCRSSQSLVHSNRNTYLHWYQQKPGQAPRLLIYKVSNRFSGVPDRFSGSGSGTDFTLKISSVEAEDVGVYYCGQGTQVPYTFGQGTKLEIK | Satisfied |
| CE115HA000/GLS3000 V94T (antibody, IgG1, name in Kabat numbering, V domains shown, one-arm IgG1) VH: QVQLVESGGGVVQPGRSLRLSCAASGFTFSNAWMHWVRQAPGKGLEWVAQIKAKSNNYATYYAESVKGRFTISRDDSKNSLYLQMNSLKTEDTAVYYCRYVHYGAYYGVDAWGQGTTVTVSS VL: DIVMTQSPLSLPVTPGEPASISCRSSQSLVHSNRNTYLHWYQQKPGQAPRLLIYKVSNRFSGVPDRFSGSGSGTDFTLKISRVEAEDVGVYYCGQGTQTPYTFGQGTKLEIK | Not satisfied |

Query block: I wonder whether CE115HA000/GLS3000 N30P (antibody, IgG1, name in Kabat numbering, V domains shown, one-arm IgG1) VH: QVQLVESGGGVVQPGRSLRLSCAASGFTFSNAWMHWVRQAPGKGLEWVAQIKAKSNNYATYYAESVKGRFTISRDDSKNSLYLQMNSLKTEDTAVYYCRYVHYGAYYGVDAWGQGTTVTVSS VL: DIVMTQSPLSLPVTPGEPASISCRSSQSLVHSNRPTYLHWYQQKPGQAPRLLIYKVSNRFSGVPDRFSGSGSGTDFTLKISRVEAEDVGVYYCGQGTQVPYTFGQGTKLEIK has KD ratio to GLS3000 below 1. Can you tell?
Result block: Not satisfied
